Where do these numbers come from? They come from the METLIN SMRT retention time set (Domingo-Almenara et al. 2019).

- Experiment notes: gradient 5% acetonitrile 3 min, to 50% in 2 min, to 85% in 15 min, held 3 min, 100 µL/min
- Measurement conditions: column: Zorbax Extend-C18 2.1 x 50 mm; eluents: water / acetonitrile, 0.1% formic acid
Reported property: RP-LC retention time (s)
One number for each entry, in s.

Hey, can you go through the list below and give me RP-LC retention time for every item?
1. O=c1ccc(-c2nc(-c3ccc(F)cc3)no2)nn1Cc1cccc(F)c1
2. COc1ccc(CC(=O)N2C[C@@H]3C[C@H](NS(C)(=O)=O)[C@H]2C3)cc1Cl

1. 1090
2. 651

Hey, can you go through the list below and give me RP-LC retention time for every item?
1. CCNC(=O)C(=O)NCC(c1ccc2c(c1)CCCN2C)N1CCCC1 (stereo not given)
2. COc1ccc(CNC(=O)C2CCCN(c3ncnc4c3oc3ccccc34)C2)c(OC)c1 (stereo not given)
3. Cc1ccc(NC(=O)Cn2c(=O)nc(N3CCC(C)CC3)c3ccccc32)c(C)c1

[615, 754, 913]
